System: NCI-60 cancer cell lines
TEST NAME: NCI-60 cancer cell line drug screen (GI50, MGM)
Assay type: cell-based, human
RUN CONDITIONS: Homo sapiens, NCI-H226, Non-Small Cell Lung Cancer, NCI-H226; read-out: Antiproliferative Activities [GI50 (μM)]
Labelling field: enter Y if recorded GI50 is less than 0.5 µM. Enter N if it equals or exceeds that cut-off.

> print(dat)
                                   compound  assigned.category
1  COc1cc2c(=O)n(CCCN3CCOCC3)c3c(c2cc1OCCCN1CCCC1)C(=O)c1cc2c(cc1-3)OCO2 [Compound 55]                  N
2  O=C1c2ccccc2-c2c1c1ccccc1c(=O)n2CCCNCCO [Compound 13]                  N
3  COc1cc2c3c(n(CCCN4CCN(C)CC4)c(=O)c2cc1OC)-c1cc2c(cc1C3=O)OCO2 [Compound 49]                  N
4  COc1cc2c3c(n(CCCn4ccnc4)c(=O)c2cc1OC)-c1cc2c(cc1C3=O)OCO2 [Compound 42]                  Y
5  COc1cc2c3c(n(CCCNC4=NCCS4)c(=O)c2cc1OC)-c1cc2c(cc1C3=O)OCO2 [Compound 50]                  Y
6  CNCCCn1c2c(c3ccc(Cl)cc3c1=O)C(=O)c1cc(OC)cnc1-2 [Compound 3]                  N
7  COc1cc2c(cc1O)-c1c(c3ccc([N+](=O)[O-])cc3c(=O)n1CCCN1CCOCC1)C2=O [Compound 36]                  Y
8  COc1cc2c3c(n(CCCN(C)C)c(=O)c2cc1OC)-c1cc2c(cc1C3=O)OCO2 [Compound 47]                  N
